Would you mind telling me the reported inhibition at 10 µM of each entry?
Biological target: PARS (Mus musculus)
Sequence (P11103 whole entry): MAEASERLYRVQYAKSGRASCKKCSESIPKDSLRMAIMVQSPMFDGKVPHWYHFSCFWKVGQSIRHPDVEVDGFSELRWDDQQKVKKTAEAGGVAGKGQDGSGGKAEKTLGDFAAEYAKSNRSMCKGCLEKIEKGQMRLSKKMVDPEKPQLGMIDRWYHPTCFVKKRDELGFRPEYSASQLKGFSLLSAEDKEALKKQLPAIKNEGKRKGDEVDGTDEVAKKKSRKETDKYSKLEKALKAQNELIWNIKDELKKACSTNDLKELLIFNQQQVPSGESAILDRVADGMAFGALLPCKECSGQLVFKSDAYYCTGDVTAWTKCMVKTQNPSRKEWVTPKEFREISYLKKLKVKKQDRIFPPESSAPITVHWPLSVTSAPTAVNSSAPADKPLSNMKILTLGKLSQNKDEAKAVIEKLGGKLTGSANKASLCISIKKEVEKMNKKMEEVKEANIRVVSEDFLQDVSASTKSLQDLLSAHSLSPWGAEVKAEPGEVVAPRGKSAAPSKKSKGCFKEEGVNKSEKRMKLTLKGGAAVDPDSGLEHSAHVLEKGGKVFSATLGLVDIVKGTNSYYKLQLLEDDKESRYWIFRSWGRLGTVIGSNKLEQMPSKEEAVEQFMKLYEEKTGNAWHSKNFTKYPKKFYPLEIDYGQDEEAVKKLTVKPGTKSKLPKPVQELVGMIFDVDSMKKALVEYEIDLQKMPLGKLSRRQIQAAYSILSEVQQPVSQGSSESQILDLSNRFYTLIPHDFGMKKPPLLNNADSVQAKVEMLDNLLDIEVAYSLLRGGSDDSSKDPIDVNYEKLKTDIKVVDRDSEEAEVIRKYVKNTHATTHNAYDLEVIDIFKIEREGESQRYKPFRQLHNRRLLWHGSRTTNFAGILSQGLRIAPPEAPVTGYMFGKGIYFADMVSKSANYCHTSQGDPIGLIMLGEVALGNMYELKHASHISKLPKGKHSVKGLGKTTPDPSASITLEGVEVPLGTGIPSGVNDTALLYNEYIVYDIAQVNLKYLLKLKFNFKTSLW
Assay: PARS inhibition by nucleoside derivatives (in vitro inflammation models)
Assay type: cell-based
Conditions: read-out: Inhibition at 10 μM
Description: For example, conjugates of adenosine derivatives were investigated for PARS inhibition.
Give just the numeric value; % need not be written.

Exercise: Looking for the measured inhibition at 10 µM of Nc1ncnc2c1ncn2[C@@H]1OC(CNC(=O)/C=C/c2ccc(C(=O)Nc3cccc4c3CNC4=O)cc2)[C@@H](O)[C@H]1O (stereo partly shown) , can you help?
Key: 31.3

Exercise: Please give the measured inhibition at 10 µM for this compound: Nc1ncnc2c1ncn2C1OC(CNC(=O)COCC(=O)Nc2cccc3c2CNC3=O)C(O)C1O (stereo not shown)
Key: 56

Exercise: I have this compound here, Nc1ncnc2c1ncn2C1OC(CNC(=O)CCn2ccc3c2CCCC3=O)C(O)C1O (stereo not shown) , and I need its recorded inhibition at 10 µM.
Key: 32

Exercise: Would you kindly share the measured inhibition at 10 µM for Nc1ncnc2c1ncn2C1OC(CNC(=O)CNC(=O)Nc2cccc3c2CNC3=O)C(O)C1O (stereo not shown) ?
Key: 62

Exercise: GET /values?readout=inhibition at 10 µM&item= Nc1ncnc2c1ncn2C1OC(C(=O)O)C(O)C1O (stereo not shown)
Key: 14.2

Exercise: Entry under review: Nc1ncnc2c1ncn2C1OC(CNC(=O)CCCCCC(=O)Nc2cccc3c2CNC3=O)C(O)C1O (stereo not shown) . Reported inhibition at 10 µM?
Key: 66

Exercise: Recorded inhibition at 10 µM of Nc1ncnc2c1ncn2[C@@H]1OC(CNC(=O)c2c(F)ccc(F)c2C(=O)Nc2cccc3c2CNC3=O)[C@@H](O)[C@H]1O (stereo partly shown) , please.
Key: 0
